All figures here come from PubChem BioAssay.

Target: Alpha-bungarotoxin (Bungarus multicinctus)
Assay: compounds binding labelled alpha-BTX control protein – biochemical, small-molecule microarray, Alexa647 label, 635/667 nm fluorescence, artefact control for SMM control protein annotation, profiling panel (AID 1117)
Details: alpha-BTX-A647 binding fluorescence, higher = more signal
Below, each entry is listed alongside its reported composite z-score.
experimentalEndpoint: composite z-score

[[record]]
molecule = "COC(=O)c1c(CC[C@@H](CO)NC(=O)N[C@H](Cc2ccccc2)Cn2cc(-c3ccccn3)nn2)oc(C(C)=O)c1C(=O)OC"
experimentalendpoint = "composite z-score"
number = 1.08

[[record]]
molecule = "C=CCOC(=O)[C@H]1[C@@H]2C(=O)O[C@@H](c3ccccc3)[C@@H](c3ccccc3)N2[C@@H](c2ccc(OCCOC(=O)[C@H]3C[C@H]4C(=O)N[C@@H](CCCCN(C)C)C(=O)N4[C@H]3c3cccc(OCCO)c3)cc2)[C@]12C(=O)Nc1ccc(I)cc12"
experimentalendpoint = "composite z-score"
number = 1.27

[[record]]
molecule = "COCCOC(=O)N1C(=O)[C@@]2(c3cc(C#CC4(O)CCCCCC4)ccc31)[C@H](c1ccccc1OCCO)N1[C@H](c3ccccc3)[C@H](c3ccccc3)OC(=O)[C@H]1[C@@H]2C(=O)N1CCc2cc(OC)c(OC)cc2C1"
experimentalendpoint = "composite z-score"
number = 1.97

[[record]]
molecule = "CS(=O)(=O)CCOC(=O)C1=CC(CCCO)=CC(C2CC2)N(Cc2cc3c(cc2Br)OCO3)C=C1C(=O)OCCS(C)(=O)=O (stereo not drawn)"
experimentalendpoint = "composite z-score"
number = 0.598

[[record]]
molecule = "CCCCC(=C=CC[C@@H](O)c1cccc(OCCO)c1)C[C@@H](O)c1ccccn1"
experimentalendpoint = "composite z-score"
number = 1.16

[[record]]
molecule = "C=C(CCCC)/C(=C/C[C@H](OC(C)=O)c1ccc(OCCO)cc1)c1cnc2ccccc2c1"
experimentalendpoint = "composite z-score"
number = 1.85

[[record]]
molecule = "COCCCNC(=O)[C@@H]1c2ccccc2C(=O)N(Cc2ccccc2)[C@H]1c1ccc(CO)cc1"
experimentalendpoint = "composite z-score"
number = -0.222

[[record]]
molecule = "O=C1C2C=CC(C(O)c3cc(C(F)(F)F)cc(C(F)(F)F)c3)N(Nc3ccccc3)C2C(=O)N1c1ccccc1 (stereo not drawn)"
experimentalendpoint = "composite z-score"
number = 0.63

[[record]]
molecule = "Cc1ccc([C@H]2C(C(=O)O)=CCN2S(=O)(=O)c2ccc(C)cc2)cc1"
experimentalendpoint = "composite z-score"
number = 0.705

[[record]]
molecule = "COC(=O)[C@]1(CCC(=O)OC(C)(C)C)N=C(c2ccc(OCCCO)cc2)O[C@@H]1c1ccccc1"
experimentalendpoint = "composite z-score"
number = 1.29

[[record]]
molecule = "COCCOC(=O)N1C(=O)[C@@]2(c3cc(C#CC4(O)CCCCCC4)ccc31)[C@H](C(=O)Nc1nc3ccccc3s1)[C@H]1C(=O)O[C@H](c3ccccc3)[C@H](c3ccccc3)N1[C@@H]2c1ccc(OCCO)cc1"
experimentalendpoint = "composite z-score"
number = 1.21

[[record]]
molecule = "O=C1N(CCS(=O)(=O)c2ccccc2)c2ccccc2[C@@H]2OC(c3ccc(OCCCO)cc3)=N[C@]12Cc1ccccc1"
experimentalendpoint = "composite z-score"
number = 1.32

[[record]]
molecule = "C=C[C@H](C)[C@@H](OC(=O)Nc1ccc(SC)cc1)c1ccc(O)c2ccccc12"
experimentalendpoint = "composite z-score"
number = 0.893

[[record]]
molecule = "CCOc1cc(C(O)C2C=CC3C(=O)N(c4ccccc4)C(=O)C3N2Nc2ccc(C(C)C)cc2)ccc1O (stereo not drawn)"
experimentalendpoint = "composite z-score"
number = 1.91

[[record]]
molecule = "C[N+](C)(C)CCCC[C@@H]1NC(=O)[C@H]2C[C@@H](C(=O)NCCCCCCNC(=O)CS)[C@@H](c3ccc(O)cc3)N2C1=O"
experimentalendpoint = "composite z-score"
number = 0.539

[[record]]
molecule = "COCCCNC(=O)[C@@]1(Cc2ccccc2CN=[N+]=[N-])N=C(c2ccc(OCCCO)cc2)O[C@H]1c1ccccc1CN=[N+]=[N-]"
experimentalendpoint = "composite z-score"
number = 1.84

[[record]]
molecule = "C=CC[C@]1(C(N)=O)COC(c2ccc(OCCCO)cc2)=N1"
experimentalendpoint = "composite z-score"
number = 1.37

[[record]]
molecule = "C=CCNC(=O)[C@H]1[C@@H]2C(=O)O[C@@H](c3ccccc3)[C@@H](c3ccccc3)N2[C@@H](c2ccc(OCCO)cc2)[C@]12C(=O)Nc1ccc(C#CCC(C(=O)OC)C(=O)OC)cc12"
experimentalendpoint = "composite z-score"
number = 1.34

[[record]]
molecule = "[N-]=[N+]=NCc1ccccc1[C@@H]1OC(c2ccc(OCCCO)cc2)=N[C@]1(CCS(=O)(=O)c1ccccc1)C(=O)N1CCOCC1"
experimentalendpoint = "composite z-score"
number = 2.04

[[record]]
molecule = "C=CC[C@]12N=C(c3ccc(OCCCO)cc3)O[C@H]1c1ccccc1N(CCS(=O)(=O)c1ccccc1)C2=O"
experimentalendpoint = "composite z-score"
number = 1.02

[[record]]
molecule = "CN1C(=O)C2C=CC(C(O)C=Cc3ccc([N+](=O)[O-])cc3)N(Nc3ccccc3)C2C1=O (stereo not drawn)"
experimentalendpoint = "composite z-score"
number = 0.627

[[record]]
molecule = "COc1ccc(CCNC(=O)[C@@]2(c3ccc([N+](=O)[O-])cc3)CC(=O)N(CC34CC5CC(CC(C5)C3)C4)[C@@H]2c2ccc(CO)cc2I)cc1"
experimentalendpoint = "composite z-score"
number = 0.962

[[record]]
molecule = "O=C1O[C@@H](c2ccccc2)[C@@H](c2ccccc2)N2[C@@H](c3ccc(OCCO)cc3)[C@]3(C(=O)Nc4ccc(C#CC5=CCCCC5)cc43)[C@@H](C(=O)N3CCCCCCC3)[C@H]12"
experimentalendpoint = "composite z-score"
number = 2.54

[[record]]
molecule = "COc1ccc(C(O)C2C=CC3C(=O)N(C)C(=O)C3N2NC(=O)OC(C)(C)C)c2ccccc12 (stereo not drawn)"
experimentalendpoint = "composite z-score"
number = 1.17

[[record]]
molecule = "COC(=O)[C@@]1(CCC(=O)OC(C)(C)C)N=C(c2ccc(OCCCO)cc2)O[C@H]1c1ccccc1"
experimentalendpoint = "composite z-score"
number = 0.629

[[record]]
molecule = "CC=CC(O)C1C=CC2C(=O)N(C)C(=O)C2N1N(c1ccccc1)c1ccccc1 (stereo not drawn)"
experimentalendpoint = "composite z-score"
number = 0.721

[[record]]
molecule = "C=CCN(Cc1ccccc1)C(=O)C(c1cccs1)N(C(=O)/C=C\\C(=O)O)c1ccc(CCOCCO)cc1 (stereo not drawn)"
experimentalendpoint = "composite z-score"
number = -1.84

[[record]]
molecule = "O=C1OCC=C[C@H]2OC34C=CCN(Cn5nnc6ccccc65)C(=O)[C@H]3N(CCCCCO)C(=O)[C@@H]4[C@@H]12 (stereo partly drawn)"
experimentalendpoint = "composite z-score"
number = -0.464

